system: hES cells; experiment: Alkaline phosphatase staining screen of LOPAC1280 library (primary screen and secondary dose titration); assay type: cell-based, human; conditions: Homo sapiens; secondary screen, dilution series, 48 hours with compound, AP staining, StemPro hESC SFM, 96-well; read-out: [Concentration] minimal effective concentration negatively impacting hES cell cultures
Structures can show the parent of a compound that is named as a salt.
Endpoint label: minimal effective concentration (µM)
Please give a number only; it is taken to be in µM.

1. CC[N+](CC)(CC)CCOc1ccc(/C=C/c2ccccc2)cc1 [MG 624] : 0.1
2. CNc1ccc2oc(C[C@H]3O[C@@]4(CC[C@H]3C)O[C@H]([C@H](C)C(=O)c3ccc[nH]3)[C@H](C)C[C@H]4C)nc2c1C(=O)O [Calcimycin] : 1
3. N=C(N)c1ccc(OCCCCCOc2ccc(C(=N)N)cc2)cc1 [Pentamidine isethionate] : 1
4. CCCCCCCC/C=C\CCCCCCCC(=O)NCCc1ccc(O)c(O)c1 [N-Oleoyldopamine] : 5

Please report minimal effective concentration for the following compound: Cc1nc(-c2ccc(-c3ccc(C(=O)N4CCc5cc6c(cc54)C4(CCN(C)CC4)CO6)cc3)c(C)c2)no1 [SB 224289 hydrochloride]
25

Provide measured minimal effective concentration value, entry: Cc1cc(N)c2ccccc2[n+]1CCCCCCCCCC[n+]1c(C)cc(N)c2ccccc21 [Dequalinium chloride hydrate]
5

Specify measured minimal effective concentration for Clc1ccc(C(c2ccc(Cl)cc2)n2cc[n+](CC(OCc3ccc(Cl)cc3Cl)c3ccc(Cl)cc3Cl)c2)cc1 (stereo not drawn) [Calmidazolium chloride] .
5

Tell me its minimal effective concentration given COc1ccc(CCCOC(Cn2ccnc2)c2ccc(OC)cc2)cc1 (stereo not drawn) [SKF 96365] as the entry.
25

----------
tested on: hES cells; assay: Alkaline phosphatase staining screen of LOPAC1280 library (primary screen and secondary dose titration); assay type: cell-based, human; settings: Homo sapiens; secondary screen, dilution series, 48 hours with compound, AP staining, StemPro hESC SFM, 96-well; read-out: [Concentration] minimal effective concentration negatively impacting hES cell cultures
Structures can show the parent of a compound that is named as a salt.
Measured minimal effective concentration of individual entries
Dear colleague, please return just the value in µM, with no unit written.

Past entries and their recorded results:
1. CC(Cc1ccc(O)c(O)c1)C(C)Cc1ccc(O)c(O)c1 (stereo not shown) [Nordihydroguaiaretic acid] : 5
2. Oc1cc2c(cc1O)CN(C(=S)NCCc1ccc(Cl)cc1)CCC2 [Capsazepine] : 5
3. O=c1[nH]c2ccccc2n1CCCN1CCC(n2c(=O)[nH]c3cc(Cl)ccc32)CC1 : 25
4. CCN(CC)CCCC(C)Nc1c2ccc(Cl)cc2nc2ccc(OC)cc12 (stereo not shown) [Quinacrine dihydrochloride] : 10
5. COCC(=O)O[C@]1(CCN(C)CCCc2nc3ccccc3[nH]2)CCc2cc(F)ccc2[C@@H]1C(C)C [Mibefradil dihydrochloride] : 25

Identify measured minimal effective concentration corresponding to c1ccc2c(c1)[I+]c1ccccc1-2 [Diphenyleneiodonium chloride]
0.1

Supply measured minimal effective concentration of CC1(C)CCC2=C(O1)c1ccccc1C(=O)C2=O in your reply.
5

----------
Recorded minimal effective concentration by entry
System: hES cells
Assay: Alkaline phosphatase staining screen of LOPAC1280 library (primary screen and secondary dose titration)
Format: cell-based, human
Settings: Homo sapiens; secondary screen, dilution series, 48 hours with compound, AP staining, StemPro hESC SFM, 96-well; read-out: [Concentration] minimal effective concentration negatively impacting hES cell cultures
Description: FIG. 1. Representation of antagonists/modulators of neurotransmitter/hormone receptors identified by compound screening in hES cells. […] Receptor antagonists identified in the primary screen are shown (left column). The screen was performed using compounds at 10 μM. […] Applying this approach in 96- and 384-well plates, quantitative and statistically significant cell-counting data was generated confirming the effect of AG825, an inhibitor of ERBB2 signaling, on self-renewal. […]
Counter-ions that a name gives are not always drawn.
Reply numerically in µM, unit not repeated.

1. Oc1cc(-c2ccccc2)nc2nc(Cl)ccc12 : 5
2. CC(C)(C)c1ccc(C(O)CCCN2CCC(C(O)(c3ccccc3)c3ccccc3)CC2)cc1 (stereo not drawn) : 25
3. COC(=O)C1=C(C)NC(C)=C(C(=O)OC(C)(C)CN(C)CCC(c2ccccc2)c2ccccc2)C1c1cccc([N+](=O)[O-])c1 (stereo not drawn) [Lercanidipine hydrochloride hemihydrate] : 10

With hES cells as the test system, provide measured minimal effective concentration for this molecule: C=CC1=C(C)c2cc3[nH]c(cc4nc(cc5[nH]c(cc1n2)c(C)c5CCC(=O)O)C(CCC(=O)O)=C4C)c(C)c3C=C [Protoporphyrin IX disodium]
10

Fetch value of minimal effective concentration on hES cells for CN(C)S(=O)(=O)c1ccc2c(c1)/C(=C/c1cc3c([nH]1)CCCC3)C(=O)N2 .
25
